Target: m-Calpain (Rattus norvegicus, UniProt Q07009)
Sequence (Q07009 20-700 limits assumed): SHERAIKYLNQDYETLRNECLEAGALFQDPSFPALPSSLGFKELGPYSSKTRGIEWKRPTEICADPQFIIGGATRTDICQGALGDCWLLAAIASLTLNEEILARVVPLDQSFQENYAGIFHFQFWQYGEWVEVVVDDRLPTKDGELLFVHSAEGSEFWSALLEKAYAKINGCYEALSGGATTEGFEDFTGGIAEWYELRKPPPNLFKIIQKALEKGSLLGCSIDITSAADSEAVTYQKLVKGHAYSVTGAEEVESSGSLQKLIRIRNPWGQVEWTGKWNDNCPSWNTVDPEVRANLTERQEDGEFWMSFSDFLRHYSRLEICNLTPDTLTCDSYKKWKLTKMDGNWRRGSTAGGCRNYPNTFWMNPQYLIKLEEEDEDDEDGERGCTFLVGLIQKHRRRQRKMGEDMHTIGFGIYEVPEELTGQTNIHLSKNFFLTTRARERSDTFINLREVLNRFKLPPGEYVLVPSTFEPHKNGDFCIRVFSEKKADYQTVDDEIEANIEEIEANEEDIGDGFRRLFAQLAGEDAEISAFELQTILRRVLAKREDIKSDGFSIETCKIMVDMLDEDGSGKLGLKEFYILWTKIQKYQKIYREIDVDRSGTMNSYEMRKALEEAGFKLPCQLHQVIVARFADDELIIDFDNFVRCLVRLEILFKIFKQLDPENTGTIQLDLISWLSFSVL
Sequence (Q64537 1-270 partner): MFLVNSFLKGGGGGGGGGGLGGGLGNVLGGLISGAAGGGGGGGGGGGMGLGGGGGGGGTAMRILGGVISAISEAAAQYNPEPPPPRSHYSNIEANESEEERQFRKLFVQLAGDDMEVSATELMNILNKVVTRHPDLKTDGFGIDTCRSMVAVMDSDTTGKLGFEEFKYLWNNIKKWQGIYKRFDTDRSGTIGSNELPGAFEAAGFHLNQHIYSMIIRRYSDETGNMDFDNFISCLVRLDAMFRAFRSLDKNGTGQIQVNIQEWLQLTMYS
QUANTITY_NAME: pIC50
Note on units: pIC50 is unitless, being -log10 of a concentration expressed in mol/L.

Worked cases, answers included:
[[record]]
molecule = "CC(C)C[C@H](NC(=O)c1ccccc1F)C(=O)N[C@H]1CCOC1O (some centres unmarked) [Inventive Example 10]"
quantity_name = "pIC50"
obs_value = 6.77

[[record]]
molecule = "CCCCCCCCCCCCCCCC(=O)N[C@@H](CC(C)C)C(=O)N[C@H]1CCOC1O (some centres unmarked) [Inventive Example 9]"
quantity_name = "pIC50"
obs_value = 6.80

[[record]]
molecule = "COc1ccc(S(=O)(=O)N[C@@H](CC(C)C)C(=O)N[C@H]2CCOC2O)cc1 (some centres unmarked) [Inventive Example 17]"
quantity_name = "pIC50"
obs_value = 6.17

[[record]]
molecule = "CC(C)C[C@H](NS(=O)(=O)c1ccccc1)C(=O)N[C@H]1C(C)COC1O (some centres unmarked) [Inventive Example 19]"
quantity_name = "pIC50"
obs_value = 5.60


Now let's try a different one.
Fill in: m-Calpain (Rattus norvegicus, UniProt Q07009) pIC50 for Cc1ccc(C(=O)N[C@@H](CC(C)C)C(=O)N[C@H]2CCOC2O)cc1 (some centres unmarked) [Inventive Example 12] = 6.48

Source: patent EP0925786A1
